assay: Apparent permeability from basolateral to apical side in human Caco2 cells at 2 uM after 2 hrs by LC/MS/MS analysis; format: ADME, cell-based; conditions: Caco-2
Quantity Name: Papp B→A at 2 h, 2 µM (×10⁻⁶ cm/s)
Unit ×10⁻⁶ cm/s implied. Number only.

Papp B→A at 2 h, 2 µM reading for O=c1ccc2c([C@@H](CO)NCCc3ccc(O)cc3)ccc(O)c2[nH]1 : 0.74

###

The entries below are paired with their reported pEC50.
molecular target: Beta-1 adrenergic receptor (Homo sapiens, UniProt P08588); experiment: Agonist activity at human beta1 adrenergic receptor expressed in HEK293 cells assessed as increase in cAMP accumulation after 60 mins by HTRF assay
Sequence (P08588 whole entry): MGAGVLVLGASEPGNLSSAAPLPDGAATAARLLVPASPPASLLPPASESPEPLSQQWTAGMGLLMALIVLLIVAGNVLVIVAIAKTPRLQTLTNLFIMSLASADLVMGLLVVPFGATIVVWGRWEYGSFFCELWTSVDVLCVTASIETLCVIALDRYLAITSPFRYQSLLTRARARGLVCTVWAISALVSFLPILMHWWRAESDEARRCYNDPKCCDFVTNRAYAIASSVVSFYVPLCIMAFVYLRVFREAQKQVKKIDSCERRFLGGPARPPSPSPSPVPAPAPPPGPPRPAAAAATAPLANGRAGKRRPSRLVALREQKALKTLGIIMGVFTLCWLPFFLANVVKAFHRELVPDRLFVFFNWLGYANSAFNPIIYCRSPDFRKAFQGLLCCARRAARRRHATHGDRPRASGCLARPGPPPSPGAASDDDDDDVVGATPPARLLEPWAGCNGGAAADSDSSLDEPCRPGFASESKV
pEC50: −log10 of the molar value.

Compound | pEC50
COc1ccc(CCNC(CO)c2ccc(O)c3[nH]c(=O)ccc23)cc1 (stereo not drawn) | < 5.00
CC(C)(Cc1ccccc1)NC(CO)c1ccc(O)c2[nH]c(=O)ccc12 (stereo not drawn) | < 5.00
O=c1ccc2c(C(CO)NCCc3ccccc3)ccc(O)c2[nH]1 (stereo not drawn) | 6.08
O=c1ccc2c(C(CO)NCCc3ccccc3Cl)ccc(O)c2[nH]1 (stereo not drawn) | < 5.00
COc1cccc(CCNC(CO)c2ccc(O)c3[nH]c(=O)ccc23)c1 (stereo not drawn) | 6.20

pEC50 reading for O=c1ccc2c(C(CO)NCCc3cccc(Cl)c3)ccc(O)c2[nH]1 (stereo not drawn) : 5.50

pEC50 reading for COc1ccccc1CCNC(CO)c1ccc(O)c2[nH]c(=O)ccc12 (stereo not drawn) : < 5.00

pEC50 reading for O=c1ccc2c(C(CO)NCCc3ccc(O)cc3)ccc(O)c2[nH]1 (stereo not drawn) : < 5.00

###

biological target: Beta-2 adrenergic receptor (Homo sapiens, UniProt P07550); assay: Agonist activity at human beta2 adrenergic receptor expressed in HEK293 cells assessed as increase in cAMP accumulation after 60 mins by HTRF assay; format: functional, cell-based; conditions: read-out: pEC50 (converted)
Sequence (P07550 whole entry): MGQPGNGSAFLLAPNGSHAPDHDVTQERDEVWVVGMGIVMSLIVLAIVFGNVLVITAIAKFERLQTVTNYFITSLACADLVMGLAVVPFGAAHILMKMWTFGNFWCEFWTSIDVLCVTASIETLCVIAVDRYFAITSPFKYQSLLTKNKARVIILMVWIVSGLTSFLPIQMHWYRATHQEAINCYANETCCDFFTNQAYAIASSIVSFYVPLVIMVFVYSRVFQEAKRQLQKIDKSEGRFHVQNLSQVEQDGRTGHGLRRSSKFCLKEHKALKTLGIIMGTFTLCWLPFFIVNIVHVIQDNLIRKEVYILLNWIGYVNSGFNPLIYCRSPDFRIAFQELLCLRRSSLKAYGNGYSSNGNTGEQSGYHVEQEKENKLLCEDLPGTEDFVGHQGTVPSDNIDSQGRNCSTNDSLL
Quantity Name: EC50 (nM)

Compound | Tested System | Quantitative Readout
O=c1ccc2c(C(CO)NCCCCCCOCCCCc3ccccc3)ccc(O)c2[nH]1 (centres undefined) | Beta-2 adrenergic receptor (Homo sapiens, UniProt P07550) | 5.01
O=C(Cc1ccccc1)Nc1ccc(CCNC(CO)c2ccc(O)c3[nH]c(=O)ccc23)cc1 (centres undefined) | Beta-2 adrenergic receptor (Homo sapiens, UniProt P07550) | 3.98

[A] COc1ccccc1CCNC(CO)c1ccc(O)c2[nH]c(=O)ccc12 (centres undefined)
[B] O=c1ccc2c(C(CO)NCCc3cccc(Cl)c3)ccc(O)c2[nH]1 (centres undefined)
Prompt line: Which of the two gives a bigger number for EC50: A or B ? The response must carry the label of the picked entry.
Response line: A
(A: 5.01 nM, B: 2.51 nM)

###

target: Beta-2 adrenergic receptor (Homo sapiens, UniProt P07550); assay: Agonist activity at human beta2 adrenergic receptor expressed in HEK293 cells assessed as increase in cAMP accumulation after 60 mins by HTRF assay; type: functional, cell-based; details: read-out: pEC50 (converted)
Quantity Name: EC50 (nM)

Reference set, count: 3
Compound | Quantity Name | Quantitative Readout
O=c1ccc2c(C(CO)NCCc3ccc(O)cc3)ccc(O)c2[nH]1 (stereo not given) | EC50 | 3.16
CC(C)(Cc1ccccc1)NC(CO)c1ccc(O)c2[nH]c(=O)ccc12 (stereo not given) | EC50 | 50.1
O=c1ccc2c(C(CO)NCCCc3ccccc3)ccc(O)c2[nH]1 (stereo not given) | EC50 | 10

[a] O=c1ccc2c(C(CO)NCCc3c[nH]c4ccccc34)ccc(O)c2[nH]1 (stereo not given)
[b] Nc1ccc(CCNC(CO)c2ccc(O)c3[nH]c(=O)ccc23)cc1 (stereo not given)
Prompt line: Dear colleague, could you let me know whether a or b has the lower recorded EC50? Thanks. The response must carry the label of the picked entry.
Response line: b
